Substrate: O=C(O)C(=O)O
Assay: purified protein
Conditions: pH 4.2 (optimum), 52 mM sodium acetate, 140 mM NaCl, 37 °C, potassium oxalate 0-150 mM, Mn enzyme
kcat: recorded values
// return numeric value only (unit: s⁻¹, not printed)

1. Oxalate decarboxylase (OxDC) (Bacillus subtilis subsp. subtilis str. 168) (protein) MKKQNDIPQPIRGDKGATVKIPRNIERDRQNPDMLVPPETDHGTVSNMKFSFSDTHNRLEKGGYAREVTVRELPISENLASVNMRLKPGAIRELHWHKEAEWAYMIYGSARVTIVDEKGRSFIDDVGEGDLWYFPSGLPHSIQALEEGAEFLLVFDDGSFSENSTFQLTDWLAHTPKEVIAANFGVTKEEISNLPGKEKYIFENQLPGSLKDDIVEGPNGEVPYPFTYRLLEQEPIESEGGKVYIADSTNFKVSKTIASALVTVEPGAMRELHWHPNTHEWQYYISGKARMTVFASDGHARTFNYQAGDVGYVPFAMGHYVENIGDEPLVFLEIFKDDHYADVSLNQWLAMLPETFVQAHLDLGKDFTDVLSKEKHPVVKKKCSK = 103

Here is the next item to consider.
Problem: // lookup kcat for Oxalate decarboxylase (OxDC) (Bacillus subtilis subsp. subtilis str. 168; H279D/T263E) (protein) MKKQNDIPQPIRGDKGATVKIPRNIERDRQNPDMLVPPETDHGTVSNMKFSFSDTHNRLEKGGYAREVTVRELPISENLASVNMRLKPGAIRELHWHKEAEWAYMIYGSARVTIVDEKGRSFIDDVGEGDLWYFPSGLPHSIQALEEGAEFLLVFDDGSFSENSTFQLTDWLAHTPKEVIAANFGVTKEEISNLPGKEKYIFENQLPGSLKDDIVEGPNGEVPYPFTYRLLEQEPIESEGGKVYIADSTNFKVSKTIASALVEVEPGAMRELHWHPNTDEWQYYISGKARMTVFASDGHARTFNYQAGDVGYVPFAMGHYVENIGDEPLVFLEIFKDDHYADVSLNQWLAMLPETFVQAHLDLGKDFTDVLSKEKHPVVKKKCSK
Result: 111
